tested on: HIPK3; conditions: concentration: 1 μM, replicates: in singlicate; n = 1
Is %Inh at least 6%? Then rule met. If not, rule not met.

CS(=O)(=O)c1ccc(-c2nc3n(c2-c2ccncc2)CCC3)cc1 [SKF-105942]: rule met
Cc1c(O)cccc1Nc1ccnc2ccc(C(F)(F)F)cc12.Cl [GW466413]: rule not met
O=C(Nc1n[nH]c2nc(-c3nccs3)c(Br)cc12)C1CCCC1 [SB-742609]: rule met
NC(=O)c1nnc2ccccc2c1N: rule met
O=c1cc(N2CCOCC2)nc2n(Cc3cccc(Cl)c3Cl)ccn12 [GSK2286295]: rule met
COc1ccc(Nc2nccc(NCCNC(=O)Nc3ccccc3F)n2)cc1 [GSK1379901]: rule met

Does the reported %Inh for O=C(Nc1n[nH]c2nc(-c3nccs3)c(Br)cc12)C1CC1 [SB-742251] fall at or above the 6% mark?
rule not met

Reported %Inh reaches at least 6% for Cn1cncc1-c1ccc2ncnc(Nc3ccc(OCc4ccccc4)cc3)c2c1 [GW320571] ?
rule met

Has Cc1nnc(-c2ccc3occ(-c4ccc(S(C)=O)cc4)c3c2)[nH]1 (stereo not shown) a recorded %Inh greater than or equal to 6%?
rule met

Assess whether reported %Inh for `Cn1ccc2ncnc(Oc3cccc(C(=O)Nc4ccccc4)c3)c21` sits at 6% or higher.
rule not met

Determine whether this molecule has %Inh no lower than 6%: O=C(Nc1ccc2c(c1)OCO2)NC1CCN(c2ccnc(Nc3ccc(F)cc3)n2)C1 (stereo not shown) [GSK1379724]
rule not met

// inclusive: %Inh at least 6%? input: Cl.c1ccc(-c2n[nH]cc2-c2ccnc(-c3ccc(CN4CCOCC4)cc3)c2)nc1 [GW776245]
rule not met

Confirm if %Inh reported for the molecule Cc1cc(N2Cc3ccccc3C2)nc(Nc2ccc(S(=O)(=O)N3CCOCC3)cc2)n1.Cl [GSK1669917] is 6% or above.
rule not met

Entry `O=C(Nc1ccccc1)Nc1cccc(Oc2ccc3nccn3n2)c1` : is its %Inh no less than 6%?
rule not met

Hello, I need to know if O=S(=O)(c1ccc(-c2ccnc3[nH]ccc23)cc1)N1CCCC1 [GSK846226] has measured %Inh not below 6%. Thanks!
rule met

Dear colleague, could you confirm whether Cl.Oc1ccc(-c2nc(-c3ccccc3)[nH]c2-c2ccncc2)cc1 [SB-428218] has %Inh at or above 6%?
rule not met

Evaluate COc1cc2nccc(Nc3ccc(NC(=O)c4ccc(C)cc4)c(O)c3)c2cc1OC.Cl [GW440132] : %Inh at minimum 6%?
rule not met

Hello, I need to know if COc1ccc2nc(-c3cccc(C)n3)nc(Nc3ccncc3)c2c1 [GSK204919] has measured %Inh not below 6%. Thanks!
rule met

hey, is %Inh for this one >= 6%? Cc1ccc(C(=O)Nc2ccc(Nc3ccnc4cc(-c5ccccn5)ccc34)cc2O)cc1.Cl [GW440146]
rule not met

Exam item: decide whether the reported %Inh for `Cn1ccc2ncnc(Oc3ccc(NC(=O)Nc4ccccc4)cc3)c21` is at least 6%.
rule not met

In plain terms: is recorded %Inh at least 6% for Cl.O=C(Nc1cccc(-c2nn3ncccc3c2-c2ccnc(Nc3cccnc3)n2)c1)c1c(F)cccc1F [GSK312879] ?
rule met

Test whether the molecule COc1ccccc1CNC(=O)c1cc(C(=O)c2ccccc2C)c[nH]1 [GSK364507] records %Inh of 6% or higher.
rule met

Entry Cc1cc(-c2ccc3c(c2)CC[C@@H](N[C@@H](C)c2ccccc2)C3)cnc1N.Cl [GW412617] : is its %Inh no less than 6%?
rule met

###

system: MAP4K2; details: concentration: 1 μM, replicates: in singlicate; n = 1
Each entry below carries its recorded %Inh.
Write the number in % without appending the unit.

Some solved cases for reference:
Cn1ccc2ncnc(Oc3ccc(NC(=O)Nc4ccccc4)cc3)c21: 0
Cc1nnc(-c2ccc3occ(-c4ccc(S(C)=O)cc4)c3c2)[nH]1 (stereo not shown): 0
Cc1csc(-c2nc(Nc3ccncc3)c3ccccc3n2)n1 [GW869640]: 34
O=C(Nc1n[nH]c2nc(-c3nccs3)c(Br)cc12)C1CC1 [SB-742251]: 0
CN(C)CCN(C)C(=O)c1cc(-c2ccncc2)c(-c2ccc(Cl)c(O)c2)o1.Cl.Cl [SB-710397]: 0
Cl.c1ccc(-c2n[nH]cc2-c2ccnc(-c3ccc(CN4CCOCC4)cc3)c2)nc1 [GW776245]: 0
Fc1cc(Cl)ccc1Nc1ccnc2cc(-c3ccc(CN4CCCCC4)o3)ccc12 [GW560116]: 0
Cn1ccc2ncnc(Oc3cccc(C(=O)Nc4ccccc4)c3)c21: 2

COc1cc2ncn(-c3cc(OCC4CCCO4)c(C(N)=O)s3)c2cc1OC (stereo not shown) [GSK204607] yielded %Inh of 0

Recorded result, COc1cccc(NC(=O)NC2CCN(c3ccnc(Nc4ccc(F)cc4)n3)C2)c1 (stereo not shown) [GSK1379721] , %Inh: 2

compound C[C@@H]1CCCCN1c1cc(-c2ccc3c(N)n[nH]c3c2)nc(N)n1 [GSK2258759] , %Inh observed: 0

// %Inh value for Cc1ccccc1-n1cnc2c(N)ncnc21 [SKF-97510] : 0

In plain terms, Cc1ccc(C(=O)Nc2ccc(Nc3ccnc4cc(-c5ccccn5)ccc34)cc2O)cc1.Cl [GW440146] has a documented %Inh of 0

Given item `Cn1ccc2ncnc(Oc3ccc(Nc4nc5ccccc5[nH]4)cc3)c21` , the value recorded as its %Inh is 0

response.value for O=C(Nc1ccc2c(c1)OCO2)NC1CCN(c2ccnc(Nc3ccc(F)cc3)n2)C1 (stereo not shown) [GSK1379724] (field: %Inh) = 0

// Cc1c(O)cccc1Nc1ccnc2ccc(C(F)(F)F)cc12.Cl [GW466413] : %Inh value = 0

Per the record, CCn1c(-c2ccccn2)nc2cnccc21 [SB-736398] has %Inh of 0

The compound COc1cc2ncnc(Nc3ccc4nc(-c5ccccc5)[nH]c4c3)c2cc1OC.Cl [GW282450] showed %Inh equal to 0

%Inh reported for this compound CC1=C(C(=O)Nc2cc3cn[nH]c3cc2F)C(c2ccc(C(F)(F)F)cc2)CC(=O)N1 (stereo not shown) [GSK429286] : 0

###

tested on: ERBB3; details: concentration: 1 μM, replicates: in singlicate; n = 1
outcome.measure: %Inh (%)
Report the value in % with no unit label.

COc1ccccc1-c1ccc2c(NC(=O)C3CC3)n[nH]c2n1: 22

// recorded %Inh for `Cc1cccc(-c2nc(Nc3ccncc3)c3ccccc3n2)n1` : 43

For `O=C(O)COc1ncnc2cc(-c3ccc4[nH]ncc4c3)sc12` the compound record lists %Inh as 0

Sure, the documented %Inh for `NC(=O)c1nnc2ccccc2c1N` is 45

`Fc1cccc(COc2nnc(-c3ccc4c(c3)CCO4)o2)c1` yielded %Inh of 13

###

system: MEK5; construct: gene MAP2K5
Threshold-based label: Kd under 200 nM gives Criterion met, Kd not under 200 nM gives Criterion not met.

Kd under 200 nM? Item: `Cl.O=C(Nc1cccc(-c2nn3ncccc3c2-c2ccnc(Nc3cccnc3)n2)c1)c1c(F)cccc1F`
Criterion not met

Determine whether this molecule shows Kd lower than 200 nM (ties excluded): `CC(C)(C)c1ccc(C(=O)Nc2cn3cc(-c4cccnc4)ccc3n2)cc1`
Criterion met

###

system: TNNI3K; conditions: concentration: 1 μM, replicates: in singlicate; n = 1
outcome.measure: %Inh
Quick note: unit goes after the number.

Example entries and their recorded answers appear below.
CN(C)CCN(C)C(=O)c1cc(-c2ccncc2)c(-c2ccc(Cl)c(O)c2)o1.Cl.Cl: 17%
Cc1csc(-c2nc(Nc3ccncc3)c3ccccc3n2)n1: 18%
Fc1cc(Cl)ccc1Nc1ccnc2cc(I)ccc12: 15%

We now examine a further compound.
// recorded %Inh for COc1cccc(NC(=O)NC2CCN(c3ccnc(Nc4ccc(F)cc4)n3)C2)c1 (stereo not shown) : 2%

###

tested on: IKK-beta; construct: gene IKBKB; details: concentration: 1 μM, replicates: in singlicate; n = 1
outcome.measure: %Inh (%)
Provide only the numeric value, understood in %.

Cc1c(Cn2ccn3c(=O)cc(N4CCOCC4)nc23)cccc1C(F)(F)F: 0

The value of %Inh measured for the molecule `Cn1ccc2ncnc(Oc3cccc(C(=O)Nc4ccccc4)c3)c21` turned out to be 15

###

system: BRK; construct: gene PTK6
outcome.measure: pKd
In simple prose, pKd is minus the logarithm base ten of a concentration in moles per litre.

Kindly note the recorded pKd for `Cc1c(O)cccc1Nc1ccnc2ccc(C(F)(F)F)cc12.Cl` , which is 6.72

###

system: PAK7; details: concentration: 1 μM, replicates: in singlicate; n = 1
outcome.measure: %Inh (%)
Please respond with the number in % and leave the unit unwritten.

CCn1c(-c2ccccn2)nc2cnccc21 [SB-736398]: 0
Cc1ccccc1-n1cnc2c(N)ncnc21 [SKF-97510]: 0
Cc1ccc(-c2cc(-c3c[nH]nc3-c3ccccn3)ccn2)cc1 [GW684088]: 19
Clc1cc(Cl)cc(Nc2ccnc(Nc3cc(Cl)cc(Cl)c3)n2)c1 [GSK175726]: 10
COc1ccccc1CNC(=O)c1cc(C(=O)c2ccccc2C)c[nH]1 [GSK364507]: 0
O=c1cc(N2CCOCC2)nc2n(Cc3cccc(Cl)c3Cl)ccn12 [GSK2286295]: 22
Cc1cccc(-c2nc(Nc3cccc(C(N)=O)c3)c3ccccc3n2)n1 [GW876019]: 0
COc1ccc(Nc2nccc(-c3cccc(NC(=O)c4cc5cc(F)ccc5[nH]4)c3)n2)cc1 [GSK1229782]: 51

Shift focus to the following entry.
Sample CN(C)CCN(C)C(=O)c1cc(-c2ccncc2)c(-c2ccc(Cl)c(O)c2)o1.Cl.Cl [SB-710397] ; %Inh observed: 0

Entry source: paper PMC5540273
